Value source: PubChem BioAssay

# target_entity: Cellular tumor antigen p53 (Homo sapiens)
# assay_details: kinase inhibitors altering GFP-p53 stability in HPV16-positive cells, imaging, known kinase inhibitor set, EGFP/DsRed ratio (AID 1053116);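 note: test concentration not given here; cells exposed to compounds for 24 h at 37 °C before reading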
# setup_conditions: stronger effect = higher value; measured here: GFP-p53 positive objects count
Assign classes using reported EGFP object count values and the ranges lo (below 4), mid (4 to below 6), hi (6 or more), please.

molecule=Cn1c(=O)c(Oc2ccc(F)cc2F)cc2cnc(NC(C)(C)CO)nc21 assigned_label=lo
molecule=CCc1c(C)nc2sc3c(N)ncnc3c2c1C assigned_label=lo
molecule=CNCCCn1cc(C2=C(c3cn(C)c4ccccc34)C(=O)NC2=O)c2ccccc21 assigned_label=lo
molecule=CN1CCC(n2cnc(-c3ccc(F)cc3)c2-c2ccnc(NCCO)n2)CC1 assigned_label=lo
molecule=C[C@@H](Oc1cc(-n2cnc3ccc(OCC4CCN(C)CC4)cc32)sc1C(N)=O)c1ccccc1C(F)(F)F assigned_label=hi
molecule="COc1ccc(-c2cc(C3CNNC3c3ccccn3)ccn2)cc1 (centres undefined)" assigned_label=lo
molecule=OCCn1c(-c2ccncc2)c(-c2ccc(F)cc2)c2ncccc21 assigned_label=mid
molecule=O=C(Nc1ccc(Oc2ccc3nc(NC(=O)c4ccccc4)[nH]c3c2)cc1)Nc1cc(C(F)(F)F)ccc1F assigned_label=lo
molecule=O=S1CCN(Cc2ccc(-c3ccc4ncnc(Nc5ccc(OCc6ccccc6)c(F)c5)c4c3)o2)CC1 assigned_label=lo
molecule=CNCC#Cc1c(F)ccc2c1C(=Cc1[nH]ccc1OC)C(=O)N2 assigned_label=hi
molecule=Clc1ccc(CNc2nccc(-c3cnn4ncccc34)n2)cc1 assigned_label=lo
molecule=CNC(=O)c1cncc(/C=C/c2c(Cl)cccc2Cl)c1 assigned_label=mid
molecule=Nc1c(C(=O)c2cccc(-c3cccnc3)c2)cnn1-c1ccc(F)cc1 assigned_label=lo
molecule=CC(C)c1ccc(Nc2nccc(-c3cnn4ncccc34)n2)cc1 assigned_label=lo
molecule=O=C1N=c2ccc(N=Cc3c(O)[nH]c4ccccc34)cc2=N1 assigned_label=mid
molecule=CCn1cc(-c2ccnc3[nH]ccc23)c(-c2cccc(NC(=O)Nc3ccc(OCc4ccccc4)cc3)c2)n1 assigned_label=hi
molecule=COc1cc(/C=N/Nc2ncnc3c2cnn3Cc2ccccc2)ccc1O assigned_label=hi
molecule=NS(=O)(=O)c1ccc(N=Nc2c(O)[nH]c3ccc(Cl)cc23)cc1 assigned_label=hi
molecule=Cc1ccc(C(=O)NC2CCCCC2)cc1-c1ccc(C(=O)NCC2CC2)cc1 assigned_label=mid
molecule=N#CCn1c(=O)c(Oc2ccc(F)cc2F)cc2cnc(NC3CCOCC3)nc21 assigned_label=lo
molecule=COc1cc2c(cc1Nc1nc(N3CCc4ccccc43)c3cc[nH]c3n1)N(C(=O)CN(C)C)CC2 assigned_label=hi
molecule="COc1ccc2cc(-c3c(-c4ccncc4)nc(-c4ccc(S(C)=O)cc4C)n3C)ccc2c1 (centres undefined)" assigned_label=lo
molecule="COc1ccc(O)c(C(=O)c2ccc(C(=O)NC3CCCNCC3NC(=O)c3ccncc3)cc2)c1F (centres undefined)" assigned_label=hi
molecule=O=C(Nc1n[nH]c2nc(-c3ccco3)ccc12)C1CC1 assigned_label=lo
molecule=O=C(Nc1n[nH]c2cc(-c3ccc(F)cc3)ccc12)C1CC1 assigned_label=lo
molecule=CSc1c(C2=C(c3cn(C)c4ccccc34)C(=O)NC2=O)c2ccccc2n1C assigned_label=hi
molecule=Cn1cc(C2=C(c3c4n(c5ccccc35)CCCC4)C(=O)NC2=O)c2ccccc21 assigned_label=mid
molecule=O=S(=O)(CCOCc1ccc(-c2ccc3ncnc(Nc4ccc(OCc5cccc(F)c5)c(Cl)c4)c3c2)o1)c1ccccc1 assigned_label=lo
